Source: the supplement of paper PMC10567573

B1: HESX1 (parent)
chain: SKYENYFSASERLSLKRELSWYRG

- Variants of: B1
- TEST METHOD NOTES: protein stability index of a GFP-peptide fusion (GPS, HEK-293T) (PSI 1-6); higher = more stable;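 note: lentivirally expressed fusions sorted by FACS into six bins by GFP to DsRed ratio, PSI derived from sequencing read proportions per bin multiplied by bin number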
- CONDITION DETAILS: c terminus: a fixed tail appended

{"columns": ["MUTANT ID", "protein stability index"],
 "data": [
  ["E4Q", 1.56],
  ["S10K", 2.72],
  ["W21D", 3.19],
  ["L15A", 2.72],
  ["S20M", 1.14],
  ["L15C", 1.94],
  ["K2R", 1.64],
  ["K16Y", 1.94],
  ["N5H", 1.9],
  ["S8V", 1.56],
  ["Y3Q", 1.61],
  ["Y3K", 3.46],
  ["E4I", 1.26],
  ["S14L", 1.02],
  ["F7M", 2.12]
]}
